# target_entity: B2 bradykinin receptor (Homo sapiens, UniProt P30411)
# assay_info: Tested for binding affinity against human IMR-90 Bradykinin receptor B2
measured_quantity: Ki (nM)
I only need the number, in nM, no unit after it.

Exercise: Report Ki for CCCC[P+](CCCC)(CCCC)Cc1ccc(NC(=O)C2Cc3ccccc3CN2C(=O)[C@H](CCc2ccccc2)N/C(=N/C2CCCCC2)NC2CCCCC2)cc1 (stereo partly specified) please.
Key: 1000

* * *

# target_entity: UniProt P30411
# Sequence (P30411 whole entry): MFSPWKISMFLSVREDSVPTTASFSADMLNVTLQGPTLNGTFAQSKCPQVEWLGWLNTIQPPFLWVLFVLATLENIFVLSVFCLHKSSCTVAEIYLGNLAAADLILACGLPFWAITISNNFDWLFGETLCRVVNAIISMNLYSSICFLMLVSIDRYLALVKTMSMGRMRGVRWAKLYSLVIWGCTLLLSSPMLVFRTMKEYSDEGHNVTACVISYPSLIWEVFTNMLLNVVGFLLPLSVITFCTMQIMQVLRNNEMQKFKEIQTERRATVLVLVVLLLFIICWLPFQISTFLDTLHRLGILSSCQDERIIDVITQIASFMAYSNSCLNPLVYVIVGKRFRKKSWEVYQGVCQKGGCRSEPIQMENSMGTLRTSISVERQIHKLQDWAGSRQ
# assay_info: ChEBML_40431
measured_quantity: pKi
Scale explanation: pKi corresponds to minus log10 of a concentration expressed in moles per litre.

Exercise: Report pKi for CCCC[P+](CCCC)(CCCC)Cc1ccc(NC(=O)C2Cc3ccccc3CN2C(=O)[C@H](CCc2ccccc2)N/C(=N/C2CCCCC2)NC2CCCCC2)cc1 (stereo partly specified) please.
Key: 6.00
